Target: M5 muscarinic receptor (Homo sapiens)
Sequence (P08912 whole entry): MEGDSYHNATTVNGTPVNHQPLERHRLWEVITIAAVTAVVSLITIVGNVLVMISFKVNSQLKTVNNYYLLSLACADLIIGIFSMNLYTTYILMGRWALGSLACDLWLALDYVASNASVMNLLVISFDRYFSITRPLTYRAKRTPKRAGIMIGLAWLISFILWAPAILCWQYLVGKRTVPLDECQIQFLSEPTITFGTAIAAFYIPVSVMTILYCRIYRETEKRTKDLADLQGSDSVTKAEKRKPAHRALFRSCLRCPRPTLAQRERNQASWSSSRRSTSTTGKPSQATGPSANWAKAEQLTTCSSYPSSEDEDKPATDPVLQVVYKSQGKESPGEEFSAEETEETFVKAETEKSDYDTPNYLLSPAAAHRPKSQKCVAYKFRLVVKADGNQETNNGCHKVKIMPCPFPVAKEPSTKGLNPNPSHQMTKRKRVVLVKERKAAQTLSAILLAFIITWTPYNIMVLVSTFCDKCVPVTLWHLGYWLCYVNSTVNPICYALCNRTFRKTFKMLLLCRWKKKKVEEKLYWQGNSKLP
Assay: accumulation of IPX, M5 CHO cells transfected with G15 (M5Gq+G15)
Format: cell-based
Design: expressed in transfected cells; host or cells: CHO cells
Conditions: Table 8, to carbachol
quantity: Δlog(τ/KA)
Answers are plain numbers.

Below, each entry is followed by its recorded Δlog(τ/KA) result.
>  <compound>
C1=CCN(Cc2cccs2)CC1.Cl [Compound 6A]

>  <Δlog(τ/KA)>
2.60

$$$$
>  <compound>
C[N+]1(Cc2cccs2)CC=CCC1.[I-] (stereo not shown) [Compound 7A]

>  <Δlog(τ/KA)>
3.17

$$$$
>  <compound>
C[N+](C)(C)CCOC(N)=O [carbachol, reference compound]

>  <Δlog(τ/KA)>
0

$$$$

Attention now shifts to the item below.
Q: Data request, read-out Δlog(τ/KA), for O=C1CCCN1CC#CCN1CCCC1 [oxotremorine, reference compound]
Ans: −0.62
